- protocolSummary: small-molecule binders of probe aNOTCH2, primary screen, biochemical, small-molecule microarray, 635/667 nm fluorescence (AID 1121);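 note: score merges feature fluorescence read at 667 nm with its signal to noise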
- cond: higher = more signal
composite z-score: recorded values
recordedMetric: composite z-score

compound	quantitativeResult
Cc1cccc([C@H]2C[C@H]3C(Br)=C[C@@H]2C(=O)[C@]32CO2)c1	-0.16
CCCCCN1CC=CC23O[C@@H]4/C=C\CCC(C)OC(=O)C4[C@H]2C(=O)N(CCCCCCO)[C@@H]3C1=O (some centres undefined)	-0.164
COC(=O)[C@@]1(Cc2ccccc2)[C@H]2c3cc(C(=O)N4CCCC4)n(CCSCCO)c3C[C@H]2CN1C(=O)c1ccccc1	0.187
COc1cc(NN2C(C(O)c3cc(OC)c(OC)c(OC)c3)C=CC3C(=O)N(c4ccccc4)C(=O)C32)cc(OC)c1OC (centres undefined)	0.044

###

- protocolSummary: small-molecule binders of probe aInhba, primary screen, biochemical, small-molecule microarray, 635/667 nm fluorescence (AID 1148);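 note: score merges 667nm spot fluorescence with signal-to-noise for antibody binding to printed compounds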
- cond: higher = more signal
Decide by composite z-score: equal to or exceeding 0.06 means 1 (yes), less means 0 (no).

compound	assignedCategory
COCCOC(=O)N1C(=O)[C@@]2(c3cc(C#Cc4ccc(OC)cc4)ccc31)[C@H](c1ccc(OCCO)cc1)N1[C@H](c3ccccc3)[C@H](c3ccccc3)OC(=O)[C@H]1[C@@H]2C(=O)Nc1nc2ccccc2s1	1 (yes)
COCCOC(=O)N1C(=O)[C@@]2(c3cc(C#CCCO)ccc31)[C@H](C(N)=O)[C@H]1C(=O)O[C@H](c3ccccc3)[C@H](c3ccccc3)N1[C@@H]2c1ccc(OCCO)cc1	0 (no)
C=C(C(=O)CC[C@H](OC(=O)c1ccccc1-c1ccccc1C(=O)O)c1ccccc1OCCO)C(C)C	0 (no)
[N-]=[N+]=Nc1ccccc1C[C@]1(C(=O)O)N=C(c2ccc(OCCCO)cc2)O[C@H]1c1ccccc1N=[N+]=[N-]	1 (yes)
C=CCC(OC(C)=O)[C@@H]1[C@@H](N(Cc2ccc(-c3cccc(C(F)(F)F)c3)o2)C(=O)Cc2ccc(OC)cc2)c2cc(OCCCO)ccc2N1C(=O)Cc1ccc2ccccc2c1 (some centres not stated)	0 (no)
CC(=O)N1CC(C(O)C2C=CC3C(=O)NC(=O)C3N2Nc2ccc(Cl)cc2Cl)c2ccccc21 (configuration not stated)	1 (yes)
COCCOC(=O)N1C(=O)[C@@]2(c3cc(C#CC4(O)CCCCCC4)ccc31)[C@H](C(=O)N1CCN(c3ncccn3)CC1)[C@H]1C(=O)O[C@H](c3ccccc3)[C@H](c3ccccc3)N1[C@@H]2c1ccccc1OCCO	1 (yes)
COc1ccc([Si](C)(C)[C@H]2[C@H](CCO)O[C@@]3(C(=O)N(Cc4ccc(N5C(=O)c6ccccc6Oc6ccccc65)cc4)c4ccccc43)[C@@H]2C)cc1	0 (no)
COCCOC(=O)N1C(=O)[C@@]2(c3cc(C#CCNC(N)=O)ccc31)[C@H](c1ccc(O)cc1)N1[C@H](c3ccccc3)[C@H](c3ccccc3)OC(=O)[C@H]1[C@@H]2C(=O)N1CCN(c2ncccn2)CC1	0 (no)
O=C1C2C=CC(C(O)c3ccc4c(c3)OCO4)N(Nc3ccccc3)C2C(=O)N1c1ccccc1 (configuration not stated)	1 (yes)
CC(=O)n1cc(C(O)C2C=CC3C(=O)N(c4ccccc4)C(=O)C3N2Nc2ccc(C(C)C)cc2)c2ccccc21 (configuration not stated)	1 (yes)
COc1ccc(C#Cc2ccc3c(c2)[C@]2(C(=O)N3)[C@H](C(=O)Nc3nc4ccccc4s3)[C@H]3C(=O)O[C@H](c4ccccc4)[C@H](c4ccccc4)N3[C@@H]2c2ccccc2OCCO)cc1	0 (no)

###

- protocolSummary: CREB reporter modulators without forskolin, primary screen, cell-based, PC12, CRE-LacZ reporter, unstimulated (AID 1145)
- cond: no forskolin, luminescence, 4.5 h, higher = more signal, called active from +8 up or from −8 down
Decide by z-score: equal to or exceeding -0.05 means Condition met, less means Condition not met.

compound	assignedCategory
COCCOC(=O)N1C(=O)[C@@]2(c3cc(C#CC4(O)CCCCCC4)ccc31)[C@H](c1ccc(OCCO)cc1)N1[C@H](c3ccccc3)[C@H](c3ccccc3)OC(=O)[C@H]1[C@@H]2C(=O)Nc1nc2ccccc2s1	Condition not met
COc1ccc([Si](C)(C)[C@@H]2[C@@H](CCn3cc([C@H](O)c4ccccc4)nn3)O[C@]3(C(=O)N(Cc4cccc(N5C(=O)c6cccc7cccc5c67)c4)c4ccccc43)[C@H]2C)cc1	Condition met
COc1ccc(C#Cc2ccc3c(c2)[C@]2(C(=O)N3)[C@H](c3ccc(OCCO)cc3)N3[C@H](c4ccccc4)[C@H](c4ccccc4)OC(=O)[C@H]3[C@@H]2C(=O)N2CCc3cc(OC)c(OC)cc3C2)cc1	Condition met
COc1cc(NN2C(C(O)C3CCCCC3)C=CC3C(=O)N(C)C(=O)C32)cc(OC)c1OC (stereo unspecified)	Condition not met
C=C(COC)C(=O)CC[C@@H](OC(=O)c1cccnc1)c1ccccc1OCCO	Condition met
COc1cc(CO)cc(I)c1O[C@H]1C=C(C(=O)NCCO)C[C@@H](NCC2CCCCC2)[C@@H]1O	Condition not met

###

- Test system: Neuregulin-1 EGF-like domain
- protocolSummary: binders of neuregulin-1 EGF-like domain, primary screen, biochemical, small-molecule microarray, 635 nm fluorescence (AID 1081);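 note: binding of the protein to compounds printed on small-molecule microarray slides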
- cond: small-molecule microarray binding, higher = more signal
recordedMetric: composite z-score

molecule	system	quantitativeResult
O=C1N[C@@H](Cc2ccccc2)C(=O)N2[C@@H]1C[C@@H](C(=O)O)[C@H]2c1ccc(O)cc1	Neuregulin-1 EGF-like domain	1.37
CC1CC/C=C\[C@H]2OC34C=CCN(CCN5CCOCC5)C(=O)[C@H]3N(C(C)CO)C(=O)[C@@H]4C2C(=O)O1 (some centres undefined)	Neuregulin-1 EGF-like domain	0.737
O=c1cccc(-c2ccc(F)cc2)o1	Neuregulin-1 EGF-like domain	1.08
COc1cc(NN2C(C(O)c3ccc(I)cc3)C=CC3C(=O)N(c4ccccc4)C(=O)C32)cc(OC)c1OC (centres undefined)	Neuregulin-1 EGF-like domain	1.35
CC(C)C[C@@H]1NC(=O)[C@@]23C(=O)N[C@@H](Cc4ccccc4)C2[C@H](C)[C@@]2(C)O[C@H]2C3/C=C/C/C=C\CNC(=O)[C@@H](C)NC1=O (some centres undefined)	Neuregulin-1 EGF-like domain	-0.483
CN(C)CCCCNC(=O)[C@H]1C[C@H]2C(=O)N[C@@H](CCCC[N+](C)(C)C)C(=O)N2[C@H]1c1ccc(O)cc1	Neuregulin-1 EGF-like domain	0.942
COCCOC(=O)N1C(=O)[C@@]2(c3cc(C#CCCO)ccc31)[C@H](C(=O)N1CCCCCCC1)[C@H]1C(=O)O[C@H](c3ccccc3)[C@H](c3ccccc3)N1[C@@H]2c1ccccc1OCCO	Neuregulin-1 EGF-like domain	1.18
COc1ccc(C(=O)Nc2cccc(CN3C(=O)[C@]4(O[C@H](CCn5cc([C@H](O)c6ccccc6)nn5)[C@@H]([Si](C)(C)c5ccc(OC)cc5)[C@@H]4C)c4ccccc43)c2)cc1	Neuregulin-1 EGF-like domain	0.933
[N-]=[N+]=Nc1ccccc1C[C@]1(C(=O)O)N=C(c2ccc(OCCCO)cc2)O[C@H]1c1ccccc1N=[N+]=[N-]	Neuregulin-1 EGF-like domain	1.04
COC(=O)c1c2oc(c1C(=O)OC)C(=O)N1CCC[C@H]1Cn1nncc1CN(Cc1ccccc1)C(=O)N[C@H](CO)CC2	Neuregulin-1 EGF-like domain	0.803
C[C@]1(C(=O)NCC(F)(F)F)c2ccccc2C(=O)N(Cc2ccccc2)[C@H]1c1ccc(CO)cc1	Neuregulin-1 EGF-like domain	0.711
CC(C)[C@H]1NC(=O)[C@@]23C(=O)N[C@@H](Cc4ccccc4)C2[C@H](C)[C@@]2(C)O[C@H]2C3/C=C/CCC/C=C/CNC(=O)[C@H](Cc2ccccc2)NC1=O (some centres undefined)	Neuregulin-1 EGF-like domain	1.22
C[C@]1(C(=O)O)c2ccccc2C(=O)N(Cc2ccc(OC(F)(F)F)cc2)[C@H]1c1ccc(CO)cc1	Neuregulin-1 EGF-like domain	0.509
COc1cc(CO)cc(I)c1O[C@H]1C=C(C(=O)NCCO)C[C@@H](NCC2CCCCC2)[C@@H]1O	Neuregulin-1 EGF-like domain	0.652
CN1C(=O)C2C=CC(C(O)c3cc(C(F)(F)F)cc(C(F)(F)F)c3)N(NC(=O)OC(C)(C)C)C2C1=O (centres undefined)	Neuregulin-1 EGF-like domain	1.03
CC(C)(C)OC(=O)CC[C@]1(C(=O)N2CCCCC2)COC(c2ccc(OCCCO)cc2)=N1	Neuregulin-1 EGF-like domain	1.15
[N-]=[N+]=NCc1ccccc1C[C@@]1(C(=O)N2CCCCC2)N=C(c2ccc(OCCCO)cc2)O[C@@H]1c1ccccc1CN=[N+]=[N-]	Neuregulin-1 EGF-like domain	0.901
O=C1O[C@H](c2ccccc2)[C@H](c2ccccc2)N2[C@H]1[C@@H](C(=O)O)[C@]1(C(=O)Nc3ccc(C#CC4(O)CCCCCC4)cc31)[C@H]2c1ccc(O)cc1	Neuregulin-1 EGF-like domain	0.866
C=C(COC)C(=O)CC[C@@H](OC(=O)c1cccnc1)c1ccccc1OCCO	Neuregulin-1 EGF-like domain	0.655
C=C[C@@H](C)[C@H](O)c1ccc(OCCO)cc1	Neuregulin-1 EGF-like domain	1.04
COc1ccc([Si](C)(C)[C@H]2[C@H](CC(=O)N3CCC[C@H]3CO)O[C@@]3(C(=O)N(Cc4ccc(N5CCC5=O)cc4)c4ccccc43)[C@@H]2C)cc1	Neuregulin-1 EGF-like domain	1.1
C=C(CCCC)C(=O)CC[C@H](OC(C)=O)c1ccc(OCCO)cc1	Neuregulin-1 EGF-like domain	-0.67
NC(=O)[C@H]1[C@@H]2C(=O)O[C@@H](c3ccccc3)[C@@H](c3ccccc3)N2[C@@H](c2ccc(O)cc2)[C@]12C(=O)Nc1ccc(C#CC3=CCCCC3)cc12	Neuregulin-1 EGF-like domain	1.25
CCCCC(=C=CC[C@H](O)c1ccc(OCCO)cc1)C[C@H](O)c1cc(Cl)cc(Cl)c1O	Neuregulin-1 EGF-like domain	0.965
COCC(=C=CC[C@@H](O)c1ccc(OCCO)cc1)CCO	Neuregulin-1 EGF-like domain	0.745
C=CCNC(=O)[C@H]1[C@@H]2C(=O)O[C@@H](c3ccccc3)[C@@H](c3ccccc3)N2[C@@H](c2ccc(O)cc2)[C@]12C(=O)N(C(=O)OCCOC)c1ccc(C#CCC(C(=O)OC)C(=O)OC)cc12	Neuregulin-1 EGF-like domain	1.21
CCN(CC)c1ccc(N2CC=CC34O[C@@H]5/C=C\CCC(C)OC(=O)C5[C@H]3C(=O)N(C(C)CO)[C@@H]4C2=O)cc1 (some centres undefined)	Neuregulin-1 EGF-like domain	-0.527
COc1cc2c(cc1O)C(c1cccs1)N(Cc1sc3ccccc3c1Cl)CC2 (centres undefined)	Neuregulin-1 EGF-like domain	1.42
C[C@]1(C(=O)NCCN2CCOCC2)c2ccccc2C(=O)N(Cc2cc(F)cc(C(F)(F)F)c2)[C@H]1c1ccc(CO)cc1	Neuregulin-1 EGF-like domain	1.47
